ASSAY NOTES: Test for stability: related substances under high temperature and illumination (HPLC)
Type: physicochemical
CONDITION SUMMARY: acetonitrile-water (1:1) solution, 4500 lx±500 lx, 10 days, area normalization
READOUT: Related substances Day 10 under illumination condition (%)

[[record]]
compound = "Nc1sc(-c2c(F)cccc2F)nc1C(=O)Nc1cncnc1OCC1CCNCC1.O=C(O)CCC(=O)O [EXAMPLE 6, Succinate]"
value_observed = 4.56

[[record]]
compound = "Nc1sc(-c2c(F)cccc2F)nc1C(=O)Nc1cncnc1OCC1CCNCC1 [EXAMPLE 1]"
value_observed = 3.02

[[record]]
compound = "Nc1sc(-c2c(F)cccc2F)nc1C(=O)Nc1cncnc1OCC1CCNCC1.O=C(O)/C=C\\C(=O)O [EXAMPLE 4]"
value_observed = 2.22

[[record]]
compound = "Br.Nc1sc(-c2c(F)cccc2F)nc1C(=O)Nc1cncnc1OCC1CCNCC1 [EXAMPLE 3]"
value_observed = 1.67


====

Form field: Related substances Day 10 under illumination condition (one value per entry).
ASSAY NOTES: Test for stability: related substances under high temperature and illumination (HPLC)
Format: physicochemical
CONDITION SUMMARY: acetonitrile-water (1:1) solution, 4500 lx±500 lx, 10 days, area normalization
READOUT: Related substances Day 10 under illumination condition (%)

[[record]]
compound = "CC(=O)O.Nc1sc(-c2c(F)cccc2F)nc1C(=O)Nc1cncnc1OCC1CCNCC1 [EXAMPLE 12]"
value_observed = 2.65

[[record]]
compound = "Cc1ccc(S(=O)(=O)O)cc1.Nc1sc(-c2c(F)cccc2F)nc1C(=O)Nc1cncnc1OCC1CCNCC1 [EXAMPLE 13]"
value_observed = 5.67

[[record]]
compound = "Nc1sc(-c2c(F)cccc2F)nc1C(=O)Nc1cncnc1OCC1CCNCC1.O=C(O)/C=C/C(=O)O [EXAMPLE 15]"
value_observed = 6.54

[[record]]
compound = "CS(=O)(=O)O.Nc1sc(-c2c(F)cccc2F)nc1C(=O)Nc1cncnc1OCC1CCNCC1 [EXAMPLE 10]"
value_observed = 23

[[record]]
compound = "Nc1sc(-c2c(F)cccc2F)nc1C(=O)Nc1cncnc1OCC1CCNCC1.O=S(=O)(O)O [EXAMPLE 7]"
value_observed = 2.45

[[record]]
compound = "CC(O)C(=O)O.Nc1sc(-c2c(F)cccc2F)nc1C(=O)Nc1cncnc1OCC1CCNCC1 [EXAMPLE 11]"
value_observed = 5.67

[[record]]
compound = "Nc1sc(-c2c(F)cccc2F)nc1C(=O)Nc1cncnc1OCC1CCNCC1.O=C(O)c1ccccc1 [EXAMPLE 9]"
value_observed = 4.44

[[record]]
compound = "Nc1sc(-c2c(F)cccc2F)nc1C(=O)Nc1cncnc1OCC1CCNCC1 [EXAMPLE 2]"
value_observed = 0.56

[[record]]
compound = "Nc1sc(-c2c(F)cccc2F)nc1C(=O)Nc1cncnc1OCC1CCNCC1.O=C(O)CC(O)(CC(=O)O)C(=O)O [EXAMPLE 8]"
value_observed = 5.52


====

ASSAY NOTES: Test for hygroscopicity (Chinese Pharmacopeia 2010, Appendix XIX J)
Format: physicochemical
READOUT: Weight increased by hygroscopy

[[record]]
molecule = "Nc1sc(-c2c(F)cccc2F)nc1C(=O)Nc1cncnc1OCC1CCNCC1.O=C(O)c1ccccc1 [EXAMPLE 9]"
value_observed = "7.53%"

[[record]]
molecule = "Br.Nc1sc(-c2c(F)cccc2F)nc1C(=O)Nc1cncnc1OCC1CCNCC1 [EXAMPLE 3]"
value_observed = "4.32%"

[[record]]
molecule = "Nc1sc(-c2c(F)cccc2F)nc1C(=O)Nc1cncnc1OCC1CCNCC1.O=C(O)CCC(=O)O [EXAMPLE 6, Succinate]"
value_observed = "7.56%"

[[record]]
molecule = "CS(=O)(=O)O.Nc1sc(-c2c(F)cccc2F)nc1C(=O)Nc1cncnc1OCC1CCNCC1 [EXAMPLE 10]"
value_observed = "8.21%"

[[record]]
molecule = "Cc1ccc(S(=O)(=O)O)cc1.Nc1sc(-c2c(F)cccc2F)nc1C(=O)Nc1cncnc1OCC1CCNCC1 [EXAMPLE 13]"
value_observed = "5.78%"

[[record]]
molecule = "CC(O)C(=O)O.Nc1sc(-c2c(F)cccc2F)nc1C(=O)Nc1cncnc1OCC1CCNCC1 [EXAMPLE 11]"
value_observed = "3.67%"

[[record]]
molecule = "Nc1sc(-c2c(F)cccc2F)nc1C(=O)Nc1cncnc1OCC1CCNCC1.O=C(O)/C=C\\C(=O)O [EXAMPLE 4]"
value_observed = "5.45%"

[[record]]
molecule = "Nc1sc(-c2c(F)cccc2F)nc1C(=O)Nc1cncnc1OCC1CCNCC1.O=S(=O)(O)O [EXAMPLE 7]"
value_observed = "3.56%"

[[record]]
molecule = "Nc1sc(-c2c(F)cccc2F)nc1C(=O)Nc1cncnc1OCC1CCNCC1.O=C(O)CC(O)(CC(=O)O)C(=O)O [EXAMPLE 8]"
value_observed = "5.67%"


====

ASSAY NOTES: Test for stability: related substances under high temperature and illumination (HPLC)
Format: physicochemical
CONDITION SUMMARY: acetonitrile-water (1:1) solution, 60° C., 10 days, area normalization; in % (unit assumed)
READOUT: Related substances Day 10 under high temperature

[[record]]
compound = "Cc1ccc(S(=O)(=O)O)cc1.Nc1sc(-c2c(F)cccc2F)nc1C(=O)Nc1cncnc1OCC1CCNCC1"
value_observed = 8.94

[[record]]
compound = "Br.Nc1sc(-c2c(F)cccc2F)nc1C(=O)Nc1cncnc1OCC1CCNCC1"
value_observed = 3.45

[[record]]
compound = "Nc1sc(-c2c(F)cccc2F)nc1C(=O)Nc1cncnc1OCC1CCNCC1.O=C(O)/C=C/C(=O)O"
value_observed = 9.12

[[record]]
compound = "CC(O)C(=O)O.Nc1sc(-c2c(F)cccc2F)nc1C(=O)Nc1cncnc1OCC1CCNCC1"
value_observed = 10.78

[[record]]
compound = "Nc1sc(-c2c(F)cccc2F)nc1C(=O)Nc1cncnc1OCC1CCNCC1.O=C(O)CCC(=O)O [EXAMPLE 6, Succinate]"
value_observed = 8.82


====

ASSAY NOTES: Test for stability: related substances under high temperature and illumination (HPLC)
Assay type: physicochemical
CONDITION SUMMARY: acetonitrile-water (1:1) solution, 4500 lx±500 lx, 10 days, area normalization
Description: The experiment was carried out according to Guiding Principles of Active Pharmaceutical Ingredient and Pharmaceutical Formulation Stability Test, Appendix XIX C, Second Part, Chinese Pharmacopeia (2010), the increase of related substance of the solution of compounds shown in formula (I) and salts thereof (EXAMPLES 1-17) under high temperature condition (60° C.) and illumination (the light intensity was 4500 lx±500 lx) was detected to evaluate the stability. […]
Listed substances paired with reported Related substances Day 10 under illumination condition
READOUT: Related substances Day 10 under illumination condition

[[record]]
substance = "Ascorbate [EXAMPLE 17]"
value_observed = "6.66%"

[[record]]
substance = "Tartrate [EXAMPLE 16]"
value_observed = "3.33%"

[[record]]
substance = "Palmitate [EXAMPLE 14]"
value_observed = "3.67%"


====

ASSAY NOTES: Pharmacokinetic test, absolute bioavailability in rats
Type: in vivo
CONDITION SUMMARY: male SD rats, i.g. 40 mg/kg vs i.v. 20 mg/kg
READOUT: Absolute Bioavailability

[[record]]
compound = "Nc1sc(-c2c(F)cccc2F)nc1C(=O)Nc1cncnc1OCC1CCNCC1 [EXAMPLE 2]"
readout = "Absolute Bioavailability"
value_observed = "32.2%"

[[record]]
compound = "CS(=O)(=O)O.Nc1sc(-c2c(F)cccc2F)nc1C(=O)Nc1cncnc1OCC1CCNCC1 [EXAMPLE 10]"
readout = "Absolute Bioavailability"
value_observed = "7.32%"

[[record]]
compound = "CC(=O)O.Nc1sc(-c2c(F)cccc2F)nc1C(=O)Nc1cncnc1OCC1CCNCC1 [EXAMPLE 12]"
readout = "Absolute Bioavailability"
value_observed = "5.34%"

[[record]]
compound = "Nc1sc(-c2c(F)cccc2F)nc1C(=O)Nc1cncnc1OCC1CCNCC1 [EXAMPLE 1]"
readout = "Absolute Bioavailability"
value_observed = "2.2%"


====

ASSAY NOTES: Test for stability: related substances under high temperature and illumination (HPLC)
Format: physicochemical
CONDITION SUMMARY: acetonitrile-water (1:1) solution, day 0, area normalization
Quick rule for you: Related substances Day 0 at 0.5% or higher means condition met, lower means condition not met.

[[record]]
molecule = "CS(=O)(=O)O.Nc1sc(-c2c(F)cccc2F)nc1C(=O)Nc1cncnc1OCC1CCNCC1"
discrete_label = "condition met"

[[record]]
molecule = "Nc1sc(-c2c(F)cccc2F)nc1C(=O)Nc1cncnc1OCC1CCNCC1.O=C(O)/C=C\\C(=O)O"
discrete_label = "condition not met"

[[record]]
molecule = "Nc1sc(-c2c(F)cccc2F)nc1C(=O)Nc1cncnc1OCC1CCNCC1.O=C(O)CCC(=O)O [EXAMPLE 6, Succinate]"
discrete_label = "condition met"

[[record]]
molecule = "Nc1sc(-c2c(F)cccc2F)nc1C(=O)Nc1cncnc1OCC1CCNCC1.O=C(O)CC(O)(CC(=O)O)C(=O)O"
discrete_label = "condition met"

